Attribution: ChEMBL document CHEMBL1961873

Reported inhibition values are given for each entry in this list.
molecular target: Serine/threonine-protein kinase Nek1 (Homo sapiens); details: at 1 µM
Description: GSK_PKIS: NEK1 mean inhibition at 1 uM [Nanosyn]
Please reply with the bare figure in % and do not write the unit itself.

{"columns": ["smilesText", "inhibition / %"],
 "data": [
  ["CCn1c(-c2nonc2N)nc2cnc(Oc3cccc(NC(=O)c4ccc(N(C)C)cc4)c3)cc21", 4.28]
]}

Which value of inhibition has been reported for NS(=O)(=O)c1ccc(N/N=C2\C(=O)Nc3ccc4ncccc4c32)cc1 in the records?
5.54

Which value of inhibition has been reported for Cc1ccc2c(-c3ccnc(Nc4ccccc4)n3)c(-c3ccc(F)cc3)nn2n1 in the records?
2.14

Which value of inhibition has been reported for N#Cc1c(NC(=O)CN2CCOCC2)sc2c1CCCC2 in the records?
6.07

###

target: 5'-AMP-activated protein kinase catalytic subunit alpha-2 (Homo sapiens); conditions: at 1 µM
Description: GSK_PKIS: AMPKA2 (A2B1G1) mean inhibition at 1 uM [Nanosyn]
recordedEndpoint: inhibition (%)
Please reply with the bare figure in % and do not write the unit itself.

Before answering, review these 4 worked examples.
{"columns": ["smilesText", "unitText", "inhibition"],
 "data": [
  ["CS(=O)(=O)CCNCc1coc(-c2ccc3ncnc(Nc4ccc(OCc5ccccc5)cc4)c3c2)c1", "%", 4.29],
  ["CC(=O)NCc1cccc(C#Cc2cncnc2Nc2ccc(OCc3cccc(F)c3)c(Cl)c2)c1", "%", 3.37],
  ["c1ccc(-c2nc3n(c2-c2ccc4c(c2)OCO4)CCC3)nc1", "%", 3.64],
  ["Cc1ccc(O)cc1Nc1ccnc2cc(-c3ccccn3)ccc12", "%", 6.05]
]}

Give inhibition (5'-AMP-activated protein kinase catalytic subunit alpha-2 (Homo sapiens)) of the following molecule: CCN1CCC(CC(=O)Nc2n[nH]c3nnc(-c4cccc(F)c4F)cc23)CC1
5.17

Give inhibition (5'-AMP-activated protein kinase catalytic subunit alpha-2 (Homo sapiens)) of the following molecule: COc1cc2c(cc1Nc1nc(Nc3ccsc3C(N)=O)c3cc[nH]c3n1)N(C(=O)CN(C)C)CCC2(C)C
7.54

Give inhibition (5'-AMP-activated protein kinase catalytic subunit alpha-2 (Homo sapiens)) of the following molecule: NS(=O)(=O)c1ccc(Nc2ncc(-c3ccccc3)o2)cc1
9.24

Give inhibition (5'-AMP-activated protein kinase catalytic subunit alpha-2 (Homo sapiens)) of the following molecule: NS(=O)(=O)c1ccc(N/N=C2\C(=O)Nc3ccc4ncccc4c32)cc1
62.2

Give inhibition (5'-AMP-activated protein kinase catalytic subunit alpha-2 (Homo sapiens)) of the following molecule: Nc1ncc(-c2cccc(S(N)(=O)=O)c2)c2scc(-c3ccc(F)c(Cl)c3)c12
4.34

Give inhibition (5'-AMP-activated protein kinase catalytic subunit alpha-2 (Homo sapiens)) of the following molecule: Fc1ccc(-c2nn3ncccc3c2-c2ccnc(Nc3ccc4c(c3)OCCO4)n2)cc1
4.39

Give inhibition (5'-AMP-activated protein kinase catalytic subunit alpha-2 (Homo sapiens)) of the following molecule: COc1cccc(-c2c[nH]c3c(N/N=C/c4ccncc4)ncnc23)c1
7.68

Give inhibition (5'-AMP-activated protein kinase catalytic subunit alpha-2 (Homo sapiens)) of the following molecule: COc1ccc2c(-c3ccnc(Nc4cccc(OC(F)(F)F)c4)n3)cnn2n1
5.72

Give inhibition (5'-AMP-activated protein kinase catalytic subunit alpha-2 (Homo sapiens)) of the following molecule: CNC(=O)c1cccc(C#Cc2cncnc2Nc2ccc(OCc3cccc(F)c3)c(Cl)c2)c1
1.89

Give inhibition (5'-AMP-activated protein kinase catalytic subunit alpha-2 (Homo sapiens)) of the following molecule: CCNC(=O)O[C@H]1CN[C@H](C#Cc2cc3ncnc(Nc4ccc(OCc5cccc(F)c5)c(Cl)c4)c3s2)C1
4.45

Give inhibition (5'-AMP-activated protein kinase catalytic subunit alpha-2 (Homo sapiens)) of the following molecule: COc1ccc(-c2oc3ncnc(N)c3c2-c2ccc(NC(=O)Nc3cc(C(F)(F)F)ccc3F)cc2)cc1
7.89

Give inhibition (5'-AMP-activated protein kinase catalytic subunit alpha-2 (Homo sapiens)) of the following molecule: CNC(=O)c1cc(-c2ccc(F)cc2)cc(-c2ccc(S(=O)(=O)N3CCCC3)cc2)c1N
2.93

Give inhibition (5'-AMP-activated protein kinase catalytic subunit alpha-2 (Homo sapiens)) of the following molecule: FC(F)(F)c1cccc(-c2nn3ncccc3c2-c2ccnc(Nc3ccc4c(c3)OCCO4)n2)c1
4.13

Give inhibition (5'-AMP-activated protein kinase catalytic subunit alpha-2 (Homo sapiens)) of the following molecule: CCn1c(-c2nonc2N)nc2ccccc21
4.49

Give inhibition (5'-AMP-activated protein kinase catalytic subunit alpha-2 (Homo sapiens)) of the following molecule: CCCN1CCC(c2ccc(Nc3nc(Nc4cc(F)ccc4C(N)=O)c4cc[nH]c4n3)c(OC)c2)CC1
13.2

###

target: Non-receptor tyrosine-protein kinase TYK2 (Homo sapiens); settings: at 0.1 µM;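 note: each value is a mean of the inhibition readings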
Reported inhibition values are given for each entry in this list.
Record the result as a number with its unit.

Before answering, review these 5 worked examples.
{"columns": ["smilesText", "recordedEndpoint", "result"],
 "data": [
  ["CCn1c(-c2nonc2N)nc2ccccc21", "inhibition", "-1.66%"],
  ["COc1cccc(-n2ncc3c(N/N=C/c4ccc(F)cc4)ncnc32)c1", "inhibition", "-4.95%"],
  ["COc1ccc(-c2cc(-c3c[nH]nc3-c3ccccn3)ccn2)cc1", "inhibition", "-6.95%"],
  ["CCN1CCC(CC(=O)Nc2n[nH]c3nnc(-c4cccc(F)c4F)cc23)CC1", "inhibition", "0.26%"],
  ["COC(=O)Nc1nc2ccc(Oc3ccc(NC(=O)Nc4cccc(Cl)c4)cc3)cc2[nH]1", "inhibition", "2%"]
]}

Give inhibition (Non-receptor tyrosine-protein kinase TYK2 (Homo sapiens)) of the following molecule: O=S(=O)(CCNCc1ccc(-c2ccc3ncnc(Nc4ccc(OCc5cccc(F)c5)c(Cl)c4)c3c2)o1)c1ccccc1
-1.8%

Give inhibition (Non-receptor tyrosine-protein kinase TYK2 (Homo sapiens)) of the following molecule: Nc1nc(-c2ccc(F)cc2)c(-c2ccc3ncccc3n2)s1
-2.9%

###

target: Serine/threonine-protein kinase Chk2 (Homo sapiens); details: at 0.1 µM
Description: GSK_PKIS: CHEK2 mean inhibition at 0.1 uM [Nanosyn]
recordedEndpoint: inhibition (%)
Please reply with the bare figure in % and do not write the unit itself.

{"columns": ["compound", "quantitativeResult"],
 "data": [
  ["CC(C)(CO)CNC(=O)c1ccc2c(c1)/C(=N/Nc1ccc(S(N)(=O)=O)cc1)C(=O)N2", -0.89],
  ["COc1cc(N2CCN(C(C)C)CC2)ccc1Nc1nc(Nc2ccc(F)cc2C(N)=O)c2cc[nH]c2n1", 49.6],
  ["[O-][S+]1CCN(Cc2ccc(-c3ccc4ncnc(Nc5ccc(OCc6cccc(F)c6)c(Cl)c5)c4c3)o2)CC1", 1.91]
]}

Which value of inhibition has been reported for COc1ccc(CNC(=O)c2ccc(-c3cc(-c4nnc(C)o4)ccc3C)cc2)cc1 in the records?
6.34

Which value of inhibition has been reported for CC1=C(C(=O)Nc2cc(Cl)c3[nH]ncc3c2)C(c2ccc(C(F)(F)F)cc2)CC(=O)N1 (stereo not given) in the records?
6.46

###

tested on: Serine/threonine-protein kinase B-raf (Homo sapiens), P15056 [V600E]; details: at 1 µM;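 note: enzyme inhibition of the BRAF V599E mutant kinase, given as mean percent inhibition, screened within the GSK PKIS kinase inhibitor set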
Sequence (P15056 whole entry V600E): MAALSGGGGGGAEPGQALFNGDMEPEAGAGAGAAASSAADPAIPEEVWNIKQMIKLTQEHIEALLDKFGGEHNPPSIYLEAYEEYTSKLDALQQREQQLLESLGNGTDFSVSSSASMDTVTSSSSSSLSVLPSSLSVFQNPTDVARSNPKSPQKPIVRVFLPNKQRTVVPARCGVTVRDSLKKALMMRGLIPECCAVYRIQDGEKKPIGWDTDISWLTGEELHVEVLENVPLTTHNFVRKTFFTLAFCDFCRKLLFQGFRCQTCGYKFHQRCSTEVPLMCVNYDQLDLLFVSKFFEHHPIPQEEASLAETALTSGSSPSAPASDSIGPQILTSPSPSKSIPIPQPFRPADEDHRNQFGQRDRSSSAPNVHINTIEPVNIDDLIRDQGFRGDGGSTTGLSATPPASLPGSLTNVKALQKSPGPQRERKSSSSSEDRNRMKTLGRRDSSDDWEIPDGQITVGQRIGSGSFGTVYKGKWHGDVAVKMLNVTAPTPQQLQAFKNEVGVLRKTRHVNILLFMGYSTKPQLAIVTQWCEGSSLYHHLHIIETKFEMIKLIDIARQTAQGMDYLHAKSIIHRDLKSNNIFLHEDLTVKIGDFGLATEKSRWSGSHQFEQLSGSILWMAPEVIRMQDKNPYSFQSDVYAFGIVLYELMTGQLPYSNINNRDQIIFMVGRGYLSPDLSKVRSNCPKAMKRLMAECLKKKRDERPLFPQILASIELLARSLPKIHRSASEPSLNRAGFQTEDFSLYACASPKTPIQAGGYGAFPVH
Description: GSK_PKIS: BRAF (V599E mutant) mean inhibition at 1 uM [Nanosyn]
Label Condition met when inhibition is at or above 5%; anything below gets Condition not met.

The following compounds have reported results that may help.
{"columns": ["smilesText", "experimentalTarget", "groupLabel"],
 "data": [
  ["Fc1cccc(COc2ccc(Nc3ncnc4sc(-c5ccco5)cc34)cc2Cl)c1", "Serine/threonine-protein kinase B-raf (Homo sapiens), P15056 [V600E]", "Condition not met"],
  ["N#Cc1c(NC(=O)CN2CCOCC2)sc2c1CCCC2", "Serine/threonine-protein kinase B-raf (Homo sapiens), P15056 [V600E]", "Condition not met"],
  ["CCn1c(-c2nonc2N)nc2c(C#CC(C)(C)O)ncc(OC3CCNCC3)c21", "Serine/threonine-protein kinase B-raf (Homo sapiens), P15056 [V600E]", "Condition not met"],
  ["Nc1ncc(-c2cccc(S(N)(=O)=O)c2)c2scc(-c3ccc(F)c(Cl)c3)c12", "Serine/threonine-protein kinase B-raf (Homo sapiens), P15056 [V600E]", "Condition met"]
]}

Entry c1cc(-c2cnn3nc(N4CCOCC4)ccc23)nc(NC2CC2)n1 : is its inhibition no less than 5%?
Condition met

Entry c1ccc(COc2ccc(Nc3ncnc4ccc(-c5ccco5)cc34)cc2)cc1 : is its inhibition no less than 5%?
Condition not met

Entry CCn1c(-c2nonc2N)nc2c(C#CC(C)(C)O)nc(OC[C@H](N)c3ccccc3)cc21 : is its inhibition no less than 5%?
Condition not met

Entry COc1ccc(-c2oc3ncnc(N)c3c2-c2ccc(NC(=O)Nc3cc(C(F)(F)F)ccc3F)cc2)cc1 : is its inhibition no less than 5%?
Condition met

Entry Cc1ccc(O)cc1Nc1ccnc2cc(-c3ccccn3)ccc12 : is its inhibition no less than 5%?
Condition met

Entry COc1cc2ncn(-c3cc(OCc4ccccc4C(F)(F)F)c(C(=O)N(C)C)s3)c2cc1OC : is its inhibition no less than 5%?
Condition not met

Entry CCOc1ccc2c(-c3ccnc(Nc4cccc(C(F)(F)F)c4)n3)cnn2n1 : is its inhibition no less than 5%?
Condition not met

Entry CCn1c(-c2nonc2N)nc2ccccc21 : is its inhibition no less than 5%?
Condition not met

Entry Cc1ccc2c(-c3ccnc(Nc4ccccc4)n3)c(-c3ccc(F)cc3)nn2n1 : is its inhibition no less than 5%?
Condition met

Entry COc1ccc(CNC(=O)c2ccc(-c3cc(-c4nnc(C)o4)ccc3C)cc2)cc1 : is its inhibition no less than 5%?
Condition not met

Entry COc1cc(N2CCN(C(C)C)CC2)ccc1Nc1nc(Nc2ccc(F)cc2C(N)=O)c2cc[nH]c2n1 : is its inhibition no less than 5%?
Condition met

Entry CCN(CC)S(=O)(=O)c1ccc(OC)c(Nc2ncc(-c3ccccc3)o2)c1 : is its inhibition no less than 5%?
Condition not met

Entry COC(=O)Nc1nc2ccc(Oc3ccc(NC(=O)Nc4cccc(Cl)c4)cc3)cc2[nH]1 : is its inhibition no less than 5%?
Condition met

Entry Fc1ccc(-c2nn3ccccc3c2-c2ccncc2)cc1 : is its inhibition no less than 5%?
Condition not met

Entry Cc1cccc2c1NC(=O)/C2=N\Nc1ccc(S(N)(=O)=O)cc1 : is its inhibition no less than 5%?
Condition not met

Entry CC(=O)NCc1cccc(C#Cc2cncnc2Nc2ccc(OCc3cccc(F)c3)c(Cl)c2)c1 : is its inhibition no less than 5%?
Condition not met
